Entries and their measured log10 IC50 follow.
biological target: HLA-DR DRB1*07:01 (Homo sapiens, UniProt P01903+P01911, A100R/A102G/A103Q/D57E/D86V/E43K/F76Y/K127E/L162R/M171V/P40G/Q125H/Q99D/R33Q/R42Y/R54Q/S133A/S66F/T210M/V115G/Y107V/Y59L/Y89S); assay: biochemical; assay type: binding; settings: read-out: Binding capacity/IC50 (nM) DRB1*07:01
Ends that are not written are not given here.
property.measured: log10 IC50 (log10 of the value in nM)

# substance, log10 IC50
rows = [
    ("YAKMRSAHTNDVKQL-NH2 [RT(354-368)]", 2.08),
    ("SEELRSLYNTVATLYCVHQ-NH2 [p17(72-90)]", 2.82),
    ("IRYPLTFGWCFKLVPVDPREVEEA-NH2 [nef(133-156)]", 2.67),
    ("NYPIVQNLQGQMVHQAISPR-NH2 [p17(131-132)/p24(1-18)]", 3.73),
    ("DEELLKAVRIIKILYQSNP-NH2 [rev(9-27)]", 1.61),
]
